Recorded values, source ChEMBL document CHEMBL4002590.

test system: Liver; assay: Metabolic stability in human liver microsomes assessed per mg protein; type: ADME, microsome

{"smiles_notation": "C[C@@H]1CCN(C(=O)N2CCCC2)C[C@@H]1N(C)c1ncnc2[nH]ccc12", "result_units": "µL/min", "Stability": 82}
{"smiles_notation": "C[C@@H]1CCN(C(=O)N2CC[C@@H](S(=O)(=O)c3cccc(O)c3)C2)C[C@@H]1N(C)c1ncnc2[nH]ccc12", "result_units": "µL/min", "Stability": 131}
{"smiles_notation": "CCc1cc(O)ccc1-c1ccc2c(-c3nc4c([nH]3)CN(C)CC4)n[nH]c2c1", "result_units": "µL/min", "Stability": 56}
{"smiles_notation": "CCc1cc(O)c(F)cc1-c1ccc2c(-c3nc4c([nH]3)CCN(C(=O)c3cnc(N5CCCCC5)cn3)C4)n[nH]c2c1", "result_units": "µL/min", "Stability": 101}
